# Test Details: Selectivity index, ratio of CC50 for human MT4 cells to EC50 for HIV-1 3B infected in human MT4 cells
# Assay type: toxicity, cell-based
# Reported Conditions: uninfected and infected with HIV-1 3B, read-out: Ratio CC50/EC50
Overview of recorded selectivity ratio for various molecules
Please reply with the value in numeric form only.

// below: answered molecules
Record Smiles	Reading
O=C(CSc1ncnn1-c1ccc(Cl)cc1Cl)Nc1ccccc1Cl	5
O=C(CSc1ncnn1-c1ccc(Cl)cc1Cl)Nc1cccnc1Cl	20
O=C(CSc1ncnn1-c1ccc(Cl)cc1Cl)Nc1ccccc1Br	20
O=C(CSc1ncnn1-c1ccc(Cl)cc1Cl)Nc1ccccc1[N+](=O)[O-]	67
COC(=O)c1ccc(NC(=O)CSc2ncnn2-c2ccc(Cl)cc2Cl)c(Br)c1	14
CCOC(=O)c1ccc(NC(=O)CSc2ncnn2-c2ccc(Cl)cc2Cl)c(Br)c1	7

Proceeding to the next molecule to report its selectivity ratio.
Identify the reported selectivity ratio for the following entry. `O=C(CSc1ncnn1-c1ccc(Cl)cc1Cl)Nc1ccc(Cl)cc1Cl`
5

----------
# Test Details: Cytotoxicity against human MT4 cells assessed as cell viability after 5 days by MTT assay
# Type: cell-based
Overview of recorded CC50 at 120 h for various molecules
The answer is to be given in µM; state only the numeric part.

// below: answered molecules
Record Smiles	Reading
CCOC(=O)c1ccc(NC(=O)CSc2ncnn2-c2ccc(Cl)cc2Cl)c(Br)c1	33.1
O=C(CSc1ncnn1-c1ccc(Cl)cc1Cl)Nc1ccc(Cl)cc1Cl	172
O=C(CSc1ncnn1-c1ccc(Cl)cc1Cl)Nc1ccccc1Cl	29.1
O=C(CSc1ncnn1-c1ccc(Cl)cc1Cl)Nc1ccc(Cl)cc1Br	189
O=C(CSc1ncnn1-c1ccc(Cl)cc1Cl)Nc1cccnc1Cl	98.5

Proceeding to the next molecule to report its CC50 at 120 h.
Identify the reported CC50 at 120 h for the following entry. `O=C(CSc1ncnn1-c1ccc(Cl)cc1Cl)Nc1ccccc1Br`
95.1

----------
# System: Human immunodeficiency virus 1
# Test Details: Ratio of EC50 for HIV-1 3B harboring RT K103N mutant infected in human MT4 cells to EC50 for wild type HIV-1 3B infected in human MT4 cells
# Type: functional
Hi! Just check whether Ratio EC50 is below 2. Below gives T, equal or above gives F.

// known answers, use as guide
Molecule	Tested On	Label
O=C(CSc1ncnn1-c1ccc(Cl)cc1Cl)Nc1ccccc1[N+](=O)[O-]	Human immunodeficiency virus 1	T
O=C(CSc1ncnn1-c1ccc(Cl)cc1Cl)Nc1ccccc1Cl	Human immunodeficiency virus 1	F
Cc1cc(C#N)cc(C)c1Oc1nc(Nc2ccc(C#N)cc2)nc(N)c1Br [ETRAVIRINE]	Human immunodeficiency virus 1	T
O=C(CSc1ncnn1-c1ccc(Cl)cc1Cl)Nc1cccnc1Cl	Human immunodeficiency virus 1	F
Cc1cn([C@H]2C[C@H](N=[N+]=[N-])[C@@H](CO)O2)c(=O)[nH]c1=O [ZIDOVUDINE]	Human immunodeficiency virus 1	T

Could you please tell me whether Ratio EC50 recorded for CC(C)Nc1cccnc1N1CCN(C(=O)c2cc3cc(NS(C)(=O)=O)ccc3[nH]2)CC1.CS(=O)(=O)O [DELAVIRDINE MESYLATE] is less than 2?
F

Could you please tell me whether Ratio EC50 recorded for `O=C(CSc1ncnn1-c1ccc(Cl)cc1Cl)Nc1ccccc1Br` is less than 2?
T

Could you please tell me whether Ratio EC50 recorded for `CCOC(=O)c1ccc(NC(=O)CSc2ncnn2-c2ccc(Cl)cc2Cl)c(Br)c1` is less than 2?
T

Could you please tell me whether Ratio EC50 recorded for `COC(=O)c1ccc(NC(=O)CSc2ncnn2-c2ccc(Cl)cc2Cl)c(Br)c1` is less than 2?
F

----------
# Test Details: Cytotoxicity against human MT4 cells assessed as cell viability after 5 days by MTT assay
# Format: cell-based
Hi! Just check whether CC50 at 120 h is below 40 µM. Below gives condition met, equal or above gives condition not met.

// known answers, use as guide
Record Smiles	Label
CC(=O)c1ccc(NC(=O)CSc2ncnn2-c2ccc(Cl)cc2Cl)c(Br)c1	condition not met
COC(=O)c1ccc(NC(=O)CSc2ncnn2-c2ccc(Cl)cc2Cl)cc1	condition met

Could you please tell me whether CC50 at 120 h recorded for `O=C(CSc1ncnn1-c1ccc(Cl)cc1Cl)Nc1ccccc1[N+](=O)[O-]` is less than 40 µM?
condition not met

Could you please tell me whether CC50 at 120 h recorded for `O=C(CSc1ncnn1-c1ccc(Cl)cc1Cl)Nc1ccccc1F` is less than 40 µM?
condition met

Could you please tell me whether CC50 at 120 h recorded for `COC(=O)c1ccc(NC(=O)CSc2ncnn2-c2ccc(Cl)cc2Cl)c(Br)c1` is less than 40 µM?
condition not met

Could you please tell me whether CC50 at 120 h recorded for `Nc1ccn([C@H]2CC[C@@H](CO)O2)c(=O)n1` is less than 40 µM?
condition not met

Could you please tell me whether CC50 at 120 h recorded for `Cc1cn([C@H]2C[C@H](N=[N+]=[N-])[C@@H](CO)O2)c(=O)[nH]c1=O` is less than 40 µM?
condition not met

Could you please tell me whether CC50 at 120 h recorded for `CCOC(=O)c1ccc(NC(=O)CSc2ncnn2-c2ccc(Cl)cc2Cl)cc1` is less than 40 µM?
condition met

Could you please tell me whether CC50 at 120 h recorded for `Cc1ccc(NC(=O)CSc2ncnn2-c2ccc(Cl)cc2Cl)c(Br)c1` is less than 40 µM?
condition not met

Could you please tell me whether CC50 at 120 h recorded for `Cc1ccccc1NC(=O)CSc1ncnn1-c1ccc(Cl)cc1Cl` is less than 40 µM?
condition not met

----------
Overview of recorded selectivity ratio for various compounds
# Test Details: Selectivity index, ratio of CC50 for human MT4 cells to EC50 for HIV-2 ROD infected in human MT4 cells
# Format: toxicity, cell-based
# Reported Conditions: uninfected and infected with HIV-2 ROD, read-out: Ratio CC50/EC50

Compound	Reading
O=C(CSc1ncnn1-c1ccc(Cl)cc1Cl)Nc1cccnc1Cl	< 1
O=C(CSc1ncnn1-c1ccc(Cl)cc1Cl)Nc1ccccc1[N+](=O)[O-]	< 1
O=C(CSc1ncnn1-c1ccc(Cl)cc1Cl)Nc1ccc(Cl)cc1Br	< 1
CCOC(=O)c1ccc(NC(=O)CSc2ncnn2-c2ccc(Cl)cc2Cl)c(Br)c1	< 1
O=C(CSc1ncnn1-c1ccc(Cl)cc1Cl)Nc1ccccc1Cl	< 1

Identify the reported selectivity ratio for the following entry. Nc1ccn([C@H]2CC[C@@H](CO)O2)c(=O)n1 [ZALCITABINE]
> 108

----------
# System: Human immunodeficiency virus 1
# Test Details: Ratio of EC50 for HIV-1 3B harboring RT E138K mutant infected in human MT4 cells to EC50 for wild type HIV-1 3B infected in human MT4 cells
# Format: functional
Ratio EC50 vs 3: at or above is yes (1), below is no (0).

Compound	Tested On	Label
CC(C)Nc1cccnc1N1CCN(C(=O)c2cc3cc(NS(C)(=O)=O)ccc3[nH]2)CC1.CS(=O)(=O)O [DELAVIRDINE MESYLATE]	Human immunodeficiency virus 1	no (0)
Cc1cn([C@H]2C[C@H](N=[N+]=[N-])[C@@H](CO)O2)c(=O)[nH]c1=O	Human immunodeficiency virus 1	no (0)
O=C(CSc1ncnn1-c1ccc(Cl)cc1Cl)Nc1ccccc1Br	Human immunodeficiency virus 1	yes (1)
Cc1cc(C#N)cc(C)c1Oc1nc(Nc2ccc(C#N)cc2)nc(N)c1Br	Human immunodeficiency virus 1	no (0)
CCOC(=O)c1ccc(NC(=O)CSc2ncnn2-c2ccc(Cl)cc2Cl)c(Br)c1	Human immunodeficiency virus 1	yes (1)
O=C(CSc1ncnn1-c1ccc(Cl)cc1Cl)Nc1cccnc1Cl	Human immunodeficiency virus 1	yes (1)

Hi, just wondering whether `O=C(CSc1ncnn1-c1ccc(Cl)cc1Cl)Nc1ccccc1[N+](=O)[O-]` shows Ratio EC50 of 3 or higher.
no (0)

Hi, just wondering whether `O=C(CSc1ncnn1-c1ccc(Cl)cc1Cl)Nc1ccccc1Cl` shows Ratio EC50 of 3 or higher.
yes (1)

----------
# Test Details: Selectivity index, ratio of CC50 for human MT4 cells to EC50 for HIV-1 3B infected in human MT4 cells
# Assay type: toxicity, cell-based
# Reported Conditions: uninfected and infected with HIV-1 3B, read-out: Ratio CC50/EC50
Overview of recorded selectivity ratio for various compounds

// below: answered compounds
Compound	selectivity ratio
O=c1[nH]cnc2c1ncn2[C@H]1CC[C@@H](CO)O1 [DIDANOSINE]	> 24
Cc1cn([C@H]2C[C@H](N=[N+]=[N-])[C@@H](CO)O2)c(=O)[nH]c1=O [ZIDOVUDINE]	> 11600
Cc1ccccc1NC(=O)CSc1ncnn1-c1ccc(Cl)cc1Cl	3

Identify the reported selectivity ratio for the following entry. `O=C(CSc1ncnn1-c1ccc(Cl)cc1Cl)Nc1ccc(Cl)cc1Br`
< 1

Identify the reported selectivity ratio for the following entry. `COC(=O)c1ccc(NC(=O)CSc2ncnn2-c2ccc(Cl)cc2Cl)cc1`
< 1

----------
Overview of recorded selectivity ratio for various molecules
# Test Details: Selectivity index, ratio of CC50 for human MT4 cells to EC50 for HIV-1 3B infected in human MT4 cells
# Format: toxicity, cell-based
# Reported Conditions: uninfected and infected with HIV-1 3B, read-out: Ratio CC50/EC50

// below: answered molecules
Record Smiles	Quantity Measured	Reading
CC(=O)c1ccc(NC(=O)CSc2ncnn2-c2ccc(Cl)cc2Cl)c(Br)c1	selectivity ratio	< 1
O=C(CSc1ncnn1-c1ccc(Cl)cc1Cl)Nc1ccccc1F	selectivity ratio	< 1
Nc1ccn([C@H]2CC[C@@H](CO)O2)c(=O)n1	selectivity ratio	> 127

Proceeding to the next molecule to report its selectivity ratio.
Identify the reported selectivity ratio for the following entry. `CCOC(=O)c1ccc(NC(=O)CSc2ncnn2-c2ccc(Cl)cc2Cl)cc1`
< 1
